Attribute: inhibition at 1 µM
- Test system: Bel-7402
- ASSAY_DETAILS: Antiproliferative activity against human Bel-7402 cells assessed as reduction in cell viability at 1 uM incubated for 72 hrs by MTT assay relative to control
- Assay type: functional

{"columns": ["STRUCTURE_SMILES", "inhibition at 1 µM"],
 "data": [
  ["C=C1C(=O)[C@]23[C@H](OC(=O)CCC(=O)OCO/N=[N+](\\[O-])N4CCOCC4)[C@H]1CC[C@H]2[C@@]12CO[C@@]3(O)[C@@H](O)[C@@H]1C(C)(C)CC[C@@H]2O", "88.5%"],
  ["C=C1C(=O)[C@]23[C@H](OC(=O)CCC(=O)OCO/N=[N+](\\[O-])N4CCCC4)[C@H]1CC[C@H]2[C@@]12CO[C@@]3(O)[C@@H](O)[C@@H]1C(C)(C)CC[C@@H]2O", "15.9%"],
  ["C=C1C(=O)[C@]23[C@H](OC(=O)CCC(=O)OCO/N=[N+](\\[O-])N4CCCC4)[C@H]1CC[C@H]2[C@@]12CO[C@@]3(O)[C@@H](O)[C@@H]1C(C)(C)CCC2=O", "24.2%"],
  ["C=C1C(=O)[C@]23[C@H](OC(=O)CCCC(=O)OCO/N=[N+](\\[O-])N4CCCC4)[C@H]1CC[C@H]2[C@@]12CO[C@@]3(O)[C@@H](O)[C@@H]1C(C)(C)CC[C@@H]2O", "26.1%"],
  ["C=C1C(=O)[C@]23[C@H](OC(=O)CCC(=O)OCO/N=[N+](\\[O-])N4CCOCC4)[C@H]1CC[C@H]2[C@@]12CO[C@@]3(O)[C@@H](O)[C@@H]1C(C)(C)CCC2=O", "71.3%"]
]}

* * *

- System: Bel-7402
- ASSAY_DETAILS: Antiproliferative activity against human Bel-7402 cells assessed as reduction in cell viability incubated for 72 hrs by MTT assay
- Assay type: functional, cell-based
- CONDITION_INFO: Bel-7402, 72 h
Counter-ions that a name gives are not always drawn.
PARAMETER: log10(IC50) (log10 of the value in µM)

{"columns": ["MOLECULE", "log10(IC50)"],
 "data": [
  ["C=C1C(=O)[C@]23[C@H](OC(=O)CCC(=O)OCO/N=[N+](\\[O-])N4CCOCC4)[C@H]1CC[C@H]2[C@@]12CO[C@@]3(O)[C@@H](O)[C@@H]1C(C)(C)CC[C@@H]2OC(C)=O", 0.48],
  ["C=C1C(=O)[C@]23[C@H](OC(=O)CCC(=O)OCO/N=[N+](\\[O-])N4CCOCC4)[C@H]1CC[C@H]2[C@@]12CO[C@@]3(O)[C@@H](O)[C@@H]1C(C)(C)CC[C@@H]2O", 0.44],
  ["C=C1C(=O)[C@]23[C@H](O)[C@H]1CC[C@H]2[C@@]12CO[C@]3(O)[C@@H](O)[C@@H]1C(C)(C)CC[C@@H]2O", 0.85],
  ["C=C1C(=O)[C@]23[C@H](OC(=O)CCCC(=O)OCO/N=[N+](\\[O-])N4CCCC4)[C@H]1CC[C@H]2[C@@]12CO[C@@]3(O)[C@@H](O)[C@@H]1C(C)(C)CCC2=O", 1.23],
  ["COc1cccc2c1C(=O)c1c(O)c3c(c(O)c1C2=O)C[C@@](O)(C(=O)CO)C[C@@H]3O[C@H]1C[C@H](N)[C@H](O)[C@H](C)O1 [DOXORUBICIN HYDROCHLORIDE]", -0.08],
  ["C=C1C(=O)[C@]23[C@H](OC(=O)CCCC(=O)OCO/N=[N+](\\[O-])N4CCCC4)[C@H]1CC[C@H]2[C@@]12CO[C@@]3(O)[C@@H](O)[C@@H]1C(C)(C)CC[C@@H]2O", 1.04],
  ["C=C1C(=O)[C@]23[C@H](OC(=O)CCC(=O)OCO/N=[N+](\\[O-])N4CCCC4)[C@H]1CC[C@H]2[C@@]12CO[C@@]3(O)[C@@H](O)[C@@H]1C(C)(C)CC[C@@H]2O", 1.12],
  ["C=C1C(=O)[C@]23[C@H](OC(=O)CCC(=O)OCO/N=[N+](\\[O-])N4CCOCC4)[C@H]1CC[C@H]2[C@@]12CO[C@@]3(O)[C@@H](O)[C@@H]1C(C)(C)CCC2=O", 0.51],
  ["C=C1C(=O)[C@]23[C@H](OC(=O)CCC(=O)OCO/N=[N+](\\[O-])N4CCCC4)[C@H]1CC[C@H]2[C@@]12CO[C@@]3(O)[C@@H](O)[C@@H]1C(C)(C)CCC2=O", 1.16],
  ["C=C1C(=O)[C@]23[C@H](OC(=O)CCC(=O)O)[C@H]1CC[C@H]2[C@@]12CO[C@@]3(O)[C@@H](O)[C@@H]1C(C)(C)CCC2=O", 0.96]
]}
